Measured values drawn from the supplement of paper PMC13380429 for this set.

# Test system: Caco-2
# protocolSummary: cell viability relative to DMSO; higher = less toxic
# runParameters: 72 h; 10000 nM
Quick reference: cell viability of the listed items.
Kindly answer with a numeric value in %, unit omitted.

Lab note: measured cell viability of CCCCCCCCCCCC(=O)N(CCO)CCO [lauric-diethanolamide] was 101

###

# Test system: HepG2
# protocolSummary: relative viability EC50 (midpoint between 100% and the lowest measured viability); higher = less toxic
# runParameters: 72 h
endpoint: relative viability EC50

>>> result("CN(Cc1ccccc1)C(=O)[C@H](Cc1ccc2ccccc2c1)NC(=O)[C@@H]1C[C@@H](O)CN1C(=O)c1cn(C)c2ccccc12")
"> 10 µM"
>>> result("O=C(Nc1nc2ccc(NC(=O)C34CC5CC(CC(C5)C3)C4)cc2s1)c1ccccc1")
"1.24 µM"
>>> result("Cc1ccc(C(=O)c2ccc(CC(=O)O)n2C)cc1")
"> 10 µM"
>>> result("CC(=O)OCC(=O)[C@@]1(O)CC[C@H]2[C@@H]3CCC4=CC(=O)CC[C@]4(C)[C@H]3C(=O)C[C@@]21C [cortisone-acetate]")
"> 10 µM"
>>> result("CCC[C@@H](NC(=O)N1C(=O)C(CC)(CC)[C@@H]1Oc1ccc(C(=O)N2CCN(C)CC2)cc1)c1ccc2c(c1)OCO2")
"> 10 µM"
>>> result("CC(C)(C)NC(=O)N[C@H](C(=O)N1C[C@H]2[C@@H]([C@H]1C(=O)NC(CC1CCC1)C(=O)C(N)=O)C2(C)C)C(C)(C)C (some centres not stated)")
"> 10 µM"

Attention now shifts to the item below.
Lab note: measured relative viability EC50 of COCCc1ccc(OCC(O)CNC(C)C)cc1 (configuration not stated) was > 10 µM
